Listed here are binders together with their documented t1/2.
SYSTEM TESTED: T1, recombinant human CD63 extracellular loop 2 expressed with a C-terminal Myc-Myc-hexahistidine (human)
T1 construct: also called hCD63 EC loop 2-MMH; human CD63 EC loop 2-MMH
T1 sequence (chain, as listed by the source limits assumed): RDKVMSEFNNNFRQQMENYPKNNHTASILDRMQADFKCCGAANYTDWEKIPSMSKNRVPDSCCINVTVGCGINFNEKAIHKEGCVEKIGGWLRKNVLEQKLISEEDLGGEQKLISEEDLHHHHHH
METHOD NOTES: SPR Biacore, mAb captured, 37C
Procedure: Equilibrium dissociation constants (KD) for different CD63 (EC2) loop reagents binding to purified anti-CD63 monoclonal antibodies were determined using a real-time surface plasmon resonance based Biacore T200 biosensor or Biacore 2000 biosensor. […] The association rate (Kₐ) and dissociation rate (kd) were determined by fitting the real-time binding sensorgrams to a 1:1 binding model with mass transport limitation using Scrubber 2.0c curve-fitting software. […]
Write the answer as a number in min, unit excluded.

BINDER	RESULT NUMBER
H2M12395N (antibody, V domains shown, also called H2aM12395N) VH: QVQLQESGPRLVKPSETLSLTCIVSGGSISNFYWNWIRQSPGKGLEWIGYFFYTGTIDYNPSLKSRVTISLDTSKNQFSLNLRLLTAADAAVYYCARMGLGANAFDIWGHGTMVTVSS VL: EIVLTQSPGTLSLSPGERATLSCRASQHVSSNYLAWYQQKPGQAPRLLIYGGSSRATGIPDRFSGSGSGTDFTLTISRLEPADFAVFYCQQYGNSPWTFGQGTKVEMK	1
H2M12452N (antibody, V domains shown, also called H2aM12452N) VH: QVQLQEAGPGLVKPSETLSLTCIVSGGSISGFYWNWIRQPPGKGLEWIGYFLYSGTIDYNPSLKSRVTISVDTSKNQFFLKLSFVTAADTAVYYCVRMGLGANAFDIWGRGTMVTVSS VL: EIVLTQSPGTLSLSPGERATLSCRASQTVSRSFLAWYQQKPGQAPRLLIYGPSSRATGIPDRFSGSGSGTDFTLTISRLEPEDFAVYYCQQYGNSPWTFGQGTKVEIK	4

### Prompt Give its t1/2 value. Item: H2M12387N (antibody, V domains shown, also called H2aM12387N) VH: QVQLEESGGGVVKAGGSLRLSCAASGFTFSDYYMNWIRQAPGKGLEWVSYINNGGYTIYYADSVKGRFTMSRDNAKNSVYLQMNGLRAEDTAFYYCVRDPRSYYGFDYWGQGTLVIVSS VL: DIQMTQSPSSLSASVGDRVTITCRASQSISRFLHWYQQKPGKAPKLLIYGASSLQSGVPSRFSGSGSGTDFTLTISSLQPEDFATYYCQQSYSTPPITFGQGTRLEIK
### Response 3
